Entries and their phosphorylation enrichment values follow.
# System: c-Src
# Assay: phosphorylation enrichment, bacterial display (enrichment ratio); higher = better substrate or ligand; peptides without Tyr show the background
Lab note: jot the number down without any unit.

See these solved cases before continuing.
Sequence Chain | phosphorylation enrichment
GMTLSYLFREP [NDUFS8_Y74] | 0.505
LRFEVYGGENE [STOX1_Y610_YF] | 0.5

Field: next sequence
Req: Requested field: phosphorylation enrichment. Item: KFRREYILSLE [GPC3_Y299_W296R_YF]
Resp: 0.5

* * *

# Target System: c-Src SH2
# Assay: SH2 binding enrichment of the phosphorylated peptide, bacterial display (enrichment ratio); higher = better substrate or ligand; peptides without Tyr show the background
Measured Endpoint: SH2 binding enrichment
Please respond with just the number, no unit label.

These solved cases illustrate the format of a correct answer.
Sequence Chain | SH2 binding enrichment
VKKKLDEEIDQ [CYP17A1_Y329_Y329D] | 0.705
TTPGPHRSIFF [MPG_Y71_Y71H_YF] | 0.681
DTLASYLDKVR [KRT12_Y139_R135T] | 0.687
WEQELYSQLVF [WAS_Y102_YF] | 0.688

Now examine the next entry.
Req: Please give the measured SH2 binding enrichment for this sequence: QMVDMYASSFM [AVPR2_Y124_G122D_YF]
Resp: 0.707

* * *

# Target System: Fyn (UniProt P06241)
# Sequence (P06241 whole entry, looked up): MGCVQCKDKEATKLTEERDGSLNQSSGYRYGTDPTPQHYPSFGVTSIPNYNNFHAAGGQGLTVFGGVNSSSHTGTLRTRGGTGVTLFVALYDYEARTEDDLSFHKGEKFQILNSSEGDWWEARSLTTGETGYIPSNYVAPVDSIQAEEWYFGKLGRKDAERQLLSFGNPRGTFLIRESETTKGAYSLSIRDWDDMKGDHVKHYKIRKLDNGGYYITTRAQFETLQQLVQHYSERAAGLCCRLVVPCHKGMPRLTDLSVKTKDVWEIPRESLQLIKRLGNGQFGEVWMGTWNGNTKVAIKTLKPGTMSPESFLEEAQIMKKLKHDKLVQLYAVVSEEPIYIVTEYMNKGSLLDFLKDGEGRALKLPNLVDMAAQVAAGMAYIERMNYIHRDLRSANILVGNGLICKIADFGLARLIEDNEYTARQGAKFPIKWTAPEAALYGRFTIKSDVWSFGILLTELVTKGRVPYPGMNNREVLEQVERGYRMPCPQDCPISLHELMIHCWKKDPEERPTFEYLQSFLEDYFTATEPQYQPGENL
# Assay: phosphorylation enrichment, bacterial display (enrichment ratio); higher = better substrate or ligand; peptides without Tyr show the background
Measured Endpoint: phosphorylation enrichment
// no unit string in output, number only

Example sequences with recorded phosphorylation enrichment:
Sequence Chain | phosphorylation enrichment
SVTCTYSPDLN [TP53_Y126_A129D] | 0.502
NNHGNYIVRLG [ETFDH_Y172] | 0.5
IVRSLYEDVED [VHL_Y185_L188V] | 0.488

For the next question, use this sequence.
Req: GET /values?readout=phosphorylation enrichment&system=Fyn (UniProt P06241)&item= ETKEDYEKILV [ANXA1_Y335_G333E]
Resp: 0.501

* * *

# Test system: AncSZ
# Assay: phosphorylation enrichment, bacterial display (enrichment ratio); higher = better substrate or ligand; peptides without Tyr show the background
Measured Endpoint: phosphorylation enrichment

Sequence Chain | Measured Endpoint | Readout Value
ISISPYPAILH [IFT80_Y588_T586S] | phosphorylation enrichment | 1.01
GEFHVYRHLRW [PRKRIP1_Y82_R87W] | phosphorylation enrichment | 1
DPHKIYEFVNS [IRF3_Y107] | phosphorylation enrichment | 0.984
TEQDPYNNIVR [MMUT_Y364] | phosphorylation enrichment | 1.01
SVTCTYSSALN [TP53_Y126_P128S] | phosphorylation enrichment | 1
VFGVSYDEYRY [CFTR_Y512_I507V] | phosphorylation enrichment | 1.01

Req: I'm curious: which phosphorylation enrichment was measured for TTSQLYDAMPI [PDPK1_Y9_V12M] tested on AncSZ?
Resp: 0.986

Req: Identify the measured phosphorylation enrichment of GIVEDYRPPFY [ACVRL1_Y421] for AncSZ.
Resp: 0.981

* * *

# Target System: Hck (UniProt P08631)
# Sequence (P08631 whole entry, looked up): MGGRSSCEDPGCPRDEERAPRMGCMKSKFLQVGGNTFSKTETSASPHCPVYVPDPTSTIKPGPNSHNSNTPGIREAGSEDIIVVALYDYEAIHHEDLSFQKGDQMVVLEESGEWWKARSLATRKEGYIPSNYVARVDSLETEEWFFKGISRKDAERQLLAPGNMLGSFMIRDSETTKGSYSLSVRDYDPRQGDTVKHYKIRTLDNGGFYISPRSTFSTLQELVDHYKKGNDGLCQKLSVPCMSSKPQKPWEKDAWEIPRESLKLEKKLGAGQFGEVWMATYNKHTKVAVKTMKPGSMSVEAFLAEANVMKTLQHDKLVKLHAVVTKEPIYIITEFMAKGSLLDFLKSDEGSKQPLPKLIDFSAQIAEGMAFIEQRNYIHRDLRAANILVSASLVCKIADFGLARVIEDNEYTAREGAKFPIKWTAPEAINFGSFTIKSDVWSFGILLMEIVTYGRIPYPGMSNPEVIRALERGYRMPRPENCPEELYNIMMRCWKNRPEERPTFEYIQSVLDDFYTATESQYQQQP
# Assay: phosphorylation enrichment, bacterial display (enrichment ratio); higher = better substrate or ligand; peptides without Tyr show the background
Measured Endpoint: phosphorylation enrichment
Quick one: just the number, no unit, thanks!

Sequence Chain | phosphorylation enrichment
DPHKIYEFVNS [IRF3_Y107] | 10.3

Req: Requested read-out: phosphorylation enrichment. Entry: ENFDDYMKEVG [FABP4_Y20]
Resp: 0.527

Req: What phosphorylation enrichment value was documented for this sequence, RRRLIYRCQVG [NR2E3_Y81] ?
Resp: 0.884

Req: What does the data say about its phosphorylation enrichment? Entry: LNWIYYKDQTG [RS1_Y166]
Resp: 1.35

Req: Fill blank: measured phosphorylation enrichment of the sequence EEGESYVCSSD [DCX_Y125] is ____.
Resp: 0.694

Req: Request the reported phosphorylation enrichment associated with IVLRSYPASGH [NID2_Y449]
Resp: 0.415

Req: What measured phosphorylation enrichment goes with VDYQPYRKHKY [TEX37_Y28] ?
Resp: 0.484

Req: Given the entry WIPIQYLIISE [NOG_Y222_P223L] , report its measured phosphorylation enrichment.
Resp: 0.573

Req: # query: phosphorylation enrichment of entry NNHGNYIVRLG [ETFDH_Y172]
Resp: 0.481

* * *

Reported SH2 binding enrichment values follow for various sequences
# Target System: SHP2-C SH2
# Assay: SH2 binding enrichment of the phosphorylated peptide, bacterial display (enrichment ratio); higher = better substrate or ligand; peptides without Tyr show the background

Sequence Chain | Target System | Readout Value
GGCQEYTGAPY [NAXD_Y85] | SHP2-C SH2 | 0.748
GVVVPYEPPEV [TP53_Y220_S215G] | SHP2-C SH2 | 0.636
FVHDNYVIWRT [CPS1_Y1450_R1453W] | SHP2-C SH2 | 0.847
HEGKIYEYNQV [ZNF665_Y162] | SHP2-C SH2 | 0.672
AAGGRYYGLVG [HARS1_Y363_D364Y] | SHP2-C SH2 | 0.595
GEVKAYGAGLL [TH_Y419] | SHP2-C SH2 | 0.457

Req: Consider the sequence shown here: LLNPSYNLPLD [TOM1L1_Y109_R108S] What is its recorded SH2 binding enrichment?
Resp: 0.618

Req: I'd like to know its SH2 binding enrichment. The sequence in question is GDFFRYLAEVA [YWHAG_Y133_YF]
Resp: 0.561

Req: Fill in: SH2 binding enrichment of NNHGNYIVRLG [ETFDH_Y172] is ___
Resp: 0.991

Req: Dear colleague, I am looking for the recorded SH2 binding enrichment of the following sequence: RQGKDYVGAIP [KDR_Y951]
Resp: 0.79

Req: Field request: SH2 binding enrichment | item: TSSSSYFDEPV [ARFGAP3_Y356]
Resp: 0.827

Req: # input sequence: IVLRSYPASGH [NID2_Y449] ; wanted: its SH2 binding enrichment
Resp: 0.831

Req: What SH2 binding enrichment value was documented for this sequence, SAGSSYSISSI [PAX5_Y179_G183S] ?
Resp: 0.554

Req: Item KVKPIYFRTQG [AR_Y916_H918R] has what recorded SH2 binding enrichment?
Resp: 1.76

Req: Data request, read-out SH2 binding enrichment, for IVGRLYRLLTE [SETX_Y1978_L1976R]
Resp: 0.734

Req: Report SH2 binding enrichment for HRGHLYLAIEY [TEK_Y899_Y897H] please.
Resp: 0.654

Req: Quick check: SH2 binding enrichment of INMKKYCKKDF [NTN1_Y490_YF] ?
Resp: 1.13

* * *

# Target System: EPHB2 (UniProt P29323)
# Sequence (P29323 whole entry, looked up): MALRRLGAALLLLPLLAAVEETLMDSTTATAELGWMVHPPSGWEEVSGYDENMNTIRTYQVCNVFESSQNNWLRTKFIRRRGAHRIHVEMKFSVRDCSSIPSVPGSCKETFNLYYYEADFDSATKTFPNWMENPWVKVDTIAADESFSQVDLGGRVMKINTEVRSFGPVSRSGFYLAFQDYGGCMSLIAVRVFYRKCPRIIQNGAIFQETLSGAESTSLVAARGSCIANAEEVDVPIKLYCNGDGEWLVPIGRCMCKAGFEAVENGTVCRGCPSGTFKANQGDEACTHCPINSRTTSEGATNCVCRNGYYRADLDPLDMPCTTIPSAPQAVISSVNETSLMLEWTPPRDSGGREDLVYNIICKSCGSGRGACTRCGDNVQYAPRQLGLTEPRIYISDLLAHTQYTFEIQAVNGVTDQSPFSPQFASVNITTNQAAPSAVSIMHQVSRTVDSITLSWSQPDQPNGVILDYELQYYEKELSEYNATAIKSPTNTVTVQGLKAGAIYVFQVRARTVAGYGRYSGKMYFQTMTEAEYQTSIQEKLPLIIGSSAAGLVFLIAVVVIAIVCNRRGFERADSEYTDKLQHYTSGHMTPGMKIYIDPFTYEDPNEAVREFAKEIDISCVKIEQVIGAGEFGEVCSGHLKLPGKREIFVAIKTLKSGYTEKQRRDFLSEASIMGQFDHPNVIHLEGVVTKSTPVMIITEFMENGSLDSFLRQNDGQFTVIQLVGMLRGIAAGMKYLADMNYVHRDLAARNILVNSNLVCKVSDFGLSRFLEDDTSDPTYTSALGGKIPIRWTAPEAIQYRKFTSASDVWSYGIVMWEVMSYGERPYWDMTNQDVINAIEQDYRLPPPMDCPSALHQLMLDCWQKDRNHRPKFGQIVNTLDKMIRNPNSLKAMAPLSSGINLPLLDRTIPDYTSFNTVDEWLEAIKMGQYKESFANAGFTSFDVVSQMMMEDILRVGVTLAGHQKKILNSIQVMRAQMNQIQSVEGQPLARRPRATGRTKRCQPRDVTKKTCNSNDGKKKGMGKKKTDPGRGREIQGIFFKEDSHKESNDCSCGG
# Assay: phosphorylation enrichment, bacterial display (enrichment ratio); higher = better substrate or ligand; peptides without Tyr show the background
Measured Endpoint: phosphorylation enrichment
Give only the figure.

Completed entries (count: 4):
Sequence Chain | phosphorylation enrichment
KRLWDYGMSSS [F8_Y1728_E1723K] | 0.461
IVLRSYPASGH [NID2_Y449] | 0.451
TSSAIYMNLAS [GATAD2B_Y317] | 3.51
IYRASYYRRGD [LTK_Y676] | 0.422

Lab note: next sequence to report on.
Req: Look up phosphorylation enrichment: ALCHFYKLNII [ETV6_Y402_R399C_YF]
Resp: 0.732

* * *

# Target System: c-Src SH2
# Assay: SH2 binding enrichment of the phosphorylated peptide, bacterial display (enrichment ratio); higher = better substrate or ligand; peptides without Tyr show the background
Quick list: SH2 binding enrichment per entry.
Format: numeric value only, no unit, no commentary.

Examples from the recorded data:
Sequence Chain | SH2 binding enrichment
SQQTYYRVSNM [ABCD1_Y181] | 0.636
WGLRSYYETSK [MAGED2_Y448] | 1.03

Moving on to the next sequence.
Req: Please report the recorded SH2 binding enrichment for LDFNEYFRDLN [HPRT1_Y198_YF] .
Resp: 0.552

* * *

The following sequences are listed with their measured SH2 binding enrichment values.
# Target System: Grb2 SH2 (UniProt P62993)
# Sequence (P62993 whole entry, looked up): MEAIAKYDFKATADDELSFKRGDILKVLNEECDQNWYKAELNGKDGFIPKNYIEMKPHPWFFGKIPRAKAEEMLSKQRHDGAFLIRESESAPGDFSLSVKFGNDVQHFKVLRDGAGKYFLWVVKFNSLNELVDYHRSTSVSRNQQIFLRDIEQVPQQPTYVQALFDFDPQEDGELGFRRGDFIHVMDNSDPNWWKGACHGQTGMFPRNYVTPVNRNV
# Assay: SH2 binding enrichment of the phosphorylated peptide, bacterial display (enrichment ratio); higher = better substrate or ligand; peptides without Tyr show the background
Provide a numeric answer; units are not to be included.

Example cases with answers are listed next.
Sequence Chain | SH2 binding enrichment
YKTPIYPYLLP [PLD2_Y578_T577I] | 0.953
CTTFHYNFMCN [TP53_Y234_I232F_YF] | 1.64

Req: # value lookup — system Grb2 SH2 (UniProt P62993), readout SH2 binding enrichment, item GTHCHYKAPIV [FZD9_Y569_T573I]
Resp: 0.995

Req: Return SH2 binding enrichment measured with Grb2 SH2 (UniProt P62993) given this sequence: MAALSYVSEIG [BPIFB2_Y36_K31M]
Resp: 0.819
